# experimental-target: human MMP-9 (gelatinase B) (Homo sapiens, UniProt P14780)
# Construct: endogenous in cells; host or cells: HT1080 human fibrosarcoma cells (ATCC CCL-121), PMA-stimulated; enzyme purified from the culture supernatant
# Sequence (P14780 107-707 limits assumed): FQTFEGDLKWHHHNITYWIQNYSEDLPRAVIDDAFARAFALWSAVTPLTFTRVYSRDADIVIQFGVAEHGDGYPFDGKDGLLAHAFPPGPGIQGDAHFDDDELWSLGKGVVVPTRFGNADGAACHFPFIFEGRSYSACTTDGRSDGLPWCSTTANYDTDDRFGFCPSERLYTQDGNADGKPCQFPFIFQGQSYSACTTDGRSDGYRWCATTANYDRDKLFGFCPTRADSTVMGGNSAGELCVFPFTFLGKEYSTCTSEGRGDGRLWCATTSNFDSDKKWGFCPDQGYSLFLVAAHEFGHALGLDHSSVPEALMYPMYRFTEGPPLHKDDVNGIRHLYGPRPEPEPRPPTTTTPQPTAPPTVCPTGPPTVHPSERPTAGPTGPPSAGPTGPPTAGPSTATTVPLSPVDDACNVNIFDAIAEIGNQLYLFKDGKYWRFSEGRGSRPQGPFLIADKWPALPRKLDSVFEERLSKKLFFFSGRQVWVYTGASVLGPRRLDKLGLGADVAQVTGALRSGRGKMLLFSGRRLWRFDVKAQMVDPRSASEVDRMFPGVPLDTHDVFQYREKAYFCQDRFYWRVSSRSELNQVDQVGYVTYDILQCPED
# protocol-notes: Inhibition activity against human MMP-9 (gelatinase B), fluorescent peptide substrate
# Assay type: biochemical
# experimental-conditions: intermediates, compounds of the formula (IV); average of 1st and 2nd (or single measurement); read-out: MMP-9 inhibition activities IC50, Average
quantity-name: pIC50
Numbers only, as −log10 of the molar value.

[
  {
    "compound": "CSC(=C[N+](=O)[O-])Nc1ccc(O)cc1 [Intermediate 12]",
    "quantity-name": "pIC50",
    "result-value": 4.60
  },
  {
    "compound": "CCNC(=C[N+](=O)[O-])SC [Intermediate 6]",
    "quantity-name": "pIC50",
    "result-value": 4.48
  }
]

--- query ---
Q: Quick check: pIC50 on human MMP-9 (gelatinase B) (Homo sapiens, UniProt P14780), item CSC(=C[N+](=O)[O-])NC1CCCC1 [Intermediate 3] ?
Ans: 4.53

* * *

quantity-name: melting point

Please state melting point for every molecule in the list that follows.
1. CNC(=C[N+](=O)[O-])NN=Cc1ccc(C(F)(F)F)cc1 [compound 166]
2. COc1ccccc1NC(=C[N+](=O)[O-])SC [Intermediate 25]
3. NNC(=C[N+](=O)[O-])NC1CC1 [compound 90]

Ans:
["188 to 189 °C", "128 to 130 °C", "145 °C (dec.)"]

For each entry beneath this line, provide reported melting point.
1. CNC(=C[N+](=O)[O-])NNc1ncc(C(F)(F)F)cc1[N+](=O)[O-] [compound 96]
2. CCCCOCCOc1cc(C(F)(F)F)cc(NNC(=C[N+](=O)[O-])NC)n1 [compound 192]
3. CNC(=C[N+](=O)[O-])NNc1nc(-c2ccccc2)nc2ccccc12 [compound 148]
4. O=[N+]([O-])C=C(NNc1cc(C(F)(F)F)cc(Cl)n1)NS(=O)(=O)c1ccccc1 [compound 159]
5. CNC(=C[N+](=O)[O-])NNc1cc(OCCOC)cc(C(F)(F)F)c1 [compound 182]
6. COc1cccc(NC(=C[N+](=O)[O-])NN)c1 [compound 52]

Ans:
165 to 167 °C (dec.)
128 °C
272 °C (dec.)
170 to 173 °C (dec.)
138 °C
144 °C

Record melting point for all entries; do not skip any.
1. CNC(=C[N+](=O)[O-])NN=Cc1cccc(C(F)(F)F)c1 [compound 167]
2. NNC(=C[N+](=O)[O-])NCc1ccccc1 [compound 92]
3. CNC(=C[N+](=O)[O-])NNc1ncc(C(F)(F)F)cc1Cl [compound 21]
4. CCOc1cc(C(F)(F)F)cc(NNC(=C[N+](=O)[O-])NC)n1 [compound 106]
5. CNC(=C[N+](=O)[O-])NNc1ccccc1Cl [compound 8]

Ans:
1. 180 °C
2. 140 to 143 °C
3. 168 °C (dec.)
4. 185 to 186 °C (dec.)
5. 178 °C (dec.)

Give melting point for each listed item.
1. CNC(=C[N+](=O)[O-])NNS(=O)(=O)c1cccc2ccccc12 [compound 150]
2. CNC(=C[N+](=O)[O-])NNc1cc(C(F)(F)F)cc(Oc2ccccc2)n1 [compound 126]
3. CNC(=C[N+](=O)[O-])NNc1ncccn1 [compound 45]
4. CNC(=C[N+](=O)[O-])NNc1cc(C(F)(F)F)cc(OCCCc2cccnc2)n1 [compound 119]
5. CNC(=C[N+](=O)[O-])NNc1cc(C(F)(F)F)nc(C(F)(F)F)c1 [compound 99]
6. NNC(=C[N+](=O)[O-])NCc1cccc(C(F)(F)F)c1 [compound 77]

Ans:
["168 °C (dec.)", "141 °C (dec.)", "182 to 183 °C (dec.)", "149 °C (dec.)", "180 to 181 °C (dec.)", "155 °C"]

* * *

# experimental-target: human MMP-9 (gelatinase B) (Homo sapiens)
# Construct: endogenous in cells; host or cells: HT1080 human fibrosarcoma cells (ATCC CCL-121), PMA-stimulated; enzyme purified from the culture supernatant
# protocol-notes: Inhibition activity against human MMP-9 (gelatinase B), fluorescent peptide substrate
# Type: biochemical
# experimental-conditions: compounds of the formula (I); 2nd measurement; read-out: MMP-9 inhibition activities IC50, 2nd
# Experimental: Human MMP-9 (gelatinase B) was purified by the following method from a culture supernatant of HT1080 cells (human fibrosarcoma). […] The inhibition activity against human MMP-9 was measured by the following method in accordance with the method by C. […]
quantity-name: pIC50
One number for each entry, as −log10 of the molar value.

[
  {
    "smiles-code": "CNC(=C[N+](=O)[O-])NN=C(C)C",
    "quantity-name": "pIC50",
    "result-value": 4.52
  }
]

// for each compound below, give its pIC50
1. CCCCCCCCNC(=C[N+](=O)[O-])NN
2. NNC(=C[N+](=O)[O-])NCc1ccccc1
3. CNC(=C[N+](=O)[O-])NNc1ccc(OC(F)(F)F)cc1

Ans:
4.46
4.69
4.57

Record pIC50 for all entries; do not skip any.
1. CNC(=C[N+](=O)[O-])NNc1cc(C(F)(F)F)cc(OCc2ccco2)n1
2. CNC(=C[N+](=O)[O-])NNc1ccc(C(F)(F)F)cc1
3. CCOCCOc1cc(C(F)(F)F)cc(NNC(=C[N+](=O)[O-])NS(C)(=O)=O)n1

Ans:
1. 4.40
2. 4.54
3. 5.23

* * *

# experimental-target: human MMP-9 (gelatinase B) (Homo sapiens)
# Construct: endogenous in cells; host or cells: HT1080 human fibrosarcoma cells (ATCC CCL-121), PMA-stimulated; enzyme purified from the culture supernatant
# protocol-notes: Inhibition activity against human MMP-9 (gelatinase B), fluorescent peptide substrate
# Assay type: biochemical
# experimental-conditions: compounds of the formula (I); 1st measurement; read-out: MMP-9 inhibition activities IC50, 1st
quantity-name: log10 of IC50 (log10 of the value in µM)
All values: log10 IC50 [µM].

Consider the reported log10 of IC50 for these compounds:
[
  {
    "compound": "CNC(=C[N+](=O)[O-])NNc1c(Cl)cncc1Cl [compound 186]",
    "result-value": 1.09
  },
  {
    "compound": "CNC(=C[N+](=O)[O-])NNc1cc(C(F)(F)F)cc(C(F)(F)F)n1 [compound 44]",
    "result-value": 1.29
  },
  {
    "compound": "CNC(=C[N+](=O)[O-])NN=Cc1ccc2c(c1)OCCO2 [compound 141]",
    "result-value": 1.30
  },
  {
    "compound": "CNC(=C[N+](=O)[O-])NNc1cccc(Cl)c1 [Compound No. 9]",
    "result-value": 1.63
  },
  {
    "compound": "NC(=C[N+](=O)[O-])NNc1cc(C(F)(F)F)cc(Cl)n1 [compound 103]",
    "result-value": 0.95
  }
]

Below are 5 compounds. Give each one its log10 of IC50.
1. CCOc1ccc(NC(=C[N+](=O)[O-])NN)cc1 [compound 70]
2. CNC(=C[N+](=O)[O-])NNc1cc(C(F)(F)F)cc(OCC2CCCCO2)n1 (centres unmarked) [compound 128]
3. CCOC(=O)c1ccc(NC(=C[N+](=O)[O-])NN)cc1 [compound 74]
4. CNC(=C[N+](=O)[O-])NNc1cc(C(F)(F)F)cc(OCCSC)n1 [compound 189]
5. CNC(=C[N+](=O)[O-])NN=Cc1ccc2ccccc2c1 [compound 135]

Ans:
1: 1.62; 2: 1.28; 3: 1.70; 4: 1.05; 5: 1.45

* * *

# experimental-target: human MMP-9 (gelatinase B) (Homo sapiens, UniProt P14780)
# Construct: endogenous in cells; host or cells: HT1080 human fibrosarcoma cells (ATCC CCL-121), PMA-stimulated; enzyme purified from the culture supernatant
# protocol-notes: Inhibition activity against human MMP-9 (gelatinase B), fluorescent peptide substrate
# Assay type: biochemical
# experimental-conditions: compounds of the formula (I); 2nd measurement; read-out: MMP-9 inhibition activities IC50, 2nd
# Protocol: Human MMP-9 (gelatinase B) was purified by the following method from a culture supernatant of HT1080 cells (human fibrosarcoma). […] The inhibition activity against human MMP-9 was measured by the following method in accordance with the method by C. […]
For each entry below, report its IC50 value.
Answers are plain numbers, in µM.

[
  {
    "compound": "CNC(=C[N+](=O)[O-])NNc1cc(C(F)(F)F)nc(C(F)(F)F)c1 [compound 99]",
    "IC50 / µM": 30
  },
  {
    "compound": "CNC(=C[N+](=O)[O-])NNc1ccnc2cc(Cl)ccc12 [compound 146]",
    "IC50 / µM": 29.4
  },
  {
    "compound": "COc1cccc(NC(=C[N+](=O)[O-])NN)c1 [compound 52]",
    "IC50 / µM": 30.2
  }
]

Please turn your attention to the following entry.
Q: What does the record list as IC50 for NNC(=C[N+](=O)[O-])NC1Cc2ccccc2C1 [compound 112] ?
Ans: 30.9

These data points were gathered from patent US6596863B2.
